All figures here come from patent US20250161308A1.

Tested on: THP1-differentiated macrophages
Format: cell-based, human
Parameters: key: NS: indicates a non-significant reduction in the indicated cytokine; +: indicates a p value<0.05 in Tukey post test; ++: indicates a p value<0.01 in Tukey post test
Condition description: 10 nM, 24 hrs LPS
Recorded endpoint: Significant reduction in TNF-α

CCC(C)CN1CC2N(Cc3ccc(C(F)(F)F)cc3)CCC(=O)N2[C@@H](C)C1=O (stereo partly shown); NS
CCC(C)CN1CC2N(Cc3ccc(OC(F)F)cc3)CCC(=O)N2[C@@H](C)C1=O (stereo partly shown); NS

----------
Tested on: THP1-differentiated macrophages
Format: cell-based, human
Parameters: key: NS: indicates a non-significant reduction in the indicated cytokine; +: indicates a p value<0.05 in Tukey post test; ++: indicates a p value<0.01 in Tukey post test
Condition description: 1000 nM, 24 hrs LPS
Recorded endpoint: Significant reduction in IL-6

CCC(C)CN1CC2N(Cc3ccc(OC(F)F)cc3)CCC(=O)N2[C@@H](C)C1=O (stereo partly shown) [Compound 6a]; NS
